Each recorded value in this set is attributed to patent US9045517B2.

For each record, write down the corresponding IC50.
tested on: A549 (lung cancer); test: MTT anti-proliferative assay, A549; type: cell-based; conditions: Homo sapiens, A549 cells, 24 h continuous exposure
Give bare numbers, in µM.

>>> value_observed("CO[C@@H]1C(OC(N)=O)C(O)[C@H](Oc2ccc3c(O[C@@H]4OC(CO)[C@@H](O)C(O)C4O)c(NC(=O)c4ccc(O)c(CC=C(C)C)c4)c(=O)oc3c2C)OC1(C)C (stereo partly drawn)")
60

Field: next compound
-- ask Suppose we examine the compound CO[C@@H]1C(OC(N)=O)C(O)[C@H](Oc2ccc3c(O[C@@H]4O[C@H](CO)[C@H](O)[C@H](O)[C@H]4O)c(NC(=O)c4ccc(O)c(CC=C(C)C)c4)c(=O)oc3c2C)OC1(C)C (stereo partly drawn) ; what IC50 value has been reported?
-- reply 100

###

test system: MCF7 (breast cancer); assay: MTT anti-proliferative assay, MCF7; format: cell-based; settings: Homo sapiens, MCF7 cells, 24 h continuous exposure
experimental_endpoint: pIC50
Numbers only, as −log10 of the molar value.

>>> value_observed("CO[C@@H]1C(OC(N)=O)C(O)[C@H](Oc2ccc3c(O[C@@H]4OC(CO)[C@@H](O)C(O)C4O)c(NC(=O)c4ccc(O)c(CC=C(C)C)c4)c(=O)oc3c2C)OC1(C)C (stereo partly drawn)")
5.00

Field: next compound
-- ask Suppose we examine the compound CO[C@@H]1C(OC(N)=O)C(O)[C@H](Oc2ccc3c(O[C@@H]4O[C@H](CO)[C@H](O)[C@H](O)[C@H]4O)c(NC(=O)c4ccc(O)c(CC=C(C)C)c4)c(=O)oc3c2C)OC1(C)C (stereo partly drawn) ; what pIC50 value has been reported?
-- reply 4.40
